In this section, each of the sequences is paired with its reported apparent KD of MS2 coat protein.
test system: MS2 coat protein; test: apparent KD of MS2 coat protein; designed switch direction (-1 OFF switch, 1 ON switch): 1; higher = weaker reporter binding; conditions: input ligand: FMN 200 uM
The response must be a number in nM with no trailing unit.

UUGCGGGCUUGAGGAUAUUGAGUACAUAUGUUUAACAUGAGGAUCACCCAUGUGGGUUGCGGUAUCGAGAAGGUAGCUUCCUGC [salish99_SSNG2_r04_812] (Eterna round: R96, puzzle: Same State NG 2) = 76.3

get_value(item= AAGAUGGUUGUAGGAUAUCCACCACUGAAGGGUGGAGAAGGGCACUCCAACAUGAGGAUCACCCAUGUACUACAAGUAGCAUCG [Eternabot solution 26] (Eterna round: R96, puzzle: Same State NG 1) , readout=apparent KD of MS2 coat protein) returns 267

* * *

tested on: K4 kissing-loop RNA reporter; assay: apparent KD of K4 kissing-loop reporter; higher = weaker reporter binding; conditions: Eterna round: R107; input ligand: arginine 13.2 mM;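 further: bound reporter read as fluorescence of individual clusters on recovered sequencing chips by microscopy, with normalized cluster intensities fitted with a binding model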
measurement.type: apparent KD of K4 kissing-loop reporter
Hey, just the number and the unit after it is fine.

Example entries and their recorded answers appear below.
GGGAGUAGUGCGGCCGCCACUGUGAAAGUAGAAGAAUAUAGUGAUGUUAUAUAGGAUUAAAAGAAUAGGACCGGGCAUUAGAUUU [SSTRyptB.W] = 207 nM
GCCGUACGCACGGAUACCAGCACUCGGUGAGUGAUGUUCACGGUGUGGUAUUCAUCGGGCUGCCCUUGGCAGCCGUGCGUACGGC = 93.6 nM

get_value(item= GCAGUGAUGUUGCACGAGUAGGGUAGAGUGCGAGGACCGGUACGGCCGCCACUCGUAUGGAACUCGCUAAUUUAUGGAAUGGUGA [whbob_SS_tryp_A] , readout=apparent KD of K4 kissing-loop reporter) returns 828 nM

* * *

test system: MS2 coat protein; assay: apparent KD of MS2 coat protein; higher = weaker reporter binding; conditions: Eterna round: R107; input ligand: theophylline 2 mM
In this section, each of the sequences is paired with its reported apparent KD of MS2 coat protein.
The response must be a number in nM with no trailing unit.

ACGGAUCGGAAACGAUCCGCGGCGCGGGUGCGAGGACCGGUACGGCCGCCACUCGGGUAACAUGAGGAUCACCCAUGUCCGAUUU [ETA NP+V+V2 #12] = 129
CAUGUUAGGGCGGCCGCCACUGUGGCUACGGUACAUGAGGAUCACCCAUGUUUGUGGUUGAUCUACAGGACCGGGCCCUGACACG [Erarusge] = 679

As a next step, examine the sequence that follows.
get_value(item= GCUGUACCAUGAAGGAGCGUCACGGAGUGCGAAUACACAUGAGGAUCACCCAUGUUUUUAUGGCAGGUAGGUCGCAUGGUACAGC [#02 Same State - Arginine B] , readout=apparent KD of MS2 coat protein) returns 28.4

* * *

system: MS2 coat protein; assay: apparent KD of MS2 coat protein, switch OFF state (with FMN for OFF switches, without FMN for ON switches); designed switch direction (-1 OFF switch, 1 ON switch): -1; higher = weaker reporter binding; details: FMN input: 0 or 200 uM; Eterna round: R93 (includes R88 designs)
measurement.type: apparent KD of MS2 coat protein

Example entries and their recorded answers appear below.
UAAAAGGUAGGAUAUACUUGGAAGACCUGCCAACAAUAACAACAUGAGGAUCACCCAUGUAGAAGGACCAAUAU [Edtiatlema] = 19.5 nM
AACAUGUCAGGAUAUGCAAAAGGAGACUGACACGCGAGUGAGCAGAAGGGACAUGAGGAUCACCCAUGUUCAAA [Mat - Mod of Meechl] = 15.6 nM
UCCGAACAUGAGGAUCACCCAUGUCAGGAUAUACACCCAGCAUGGAAGCCAUGCUCAAGUAGAAGGGACGGGUG [Inxeus] = 34.9 nM
AAAAAGAGAGGAUAUACAUGAGGAUCACCCAUGUGAAAGACGAAAAAAAGUCUAAAAAGUAGAAGGCUCAAAAA [65%, Moding Exclusion3-cac2, 12] = 22.5 nM
AUUCUACAUGAGGAUCACCCAUGUGAGGAUAUGCUAUACUAUUGUUGCAAUACUUAGAGCAGAAGGCACAUCGU [JR_EXc001_Sub801] = 66.2 nM

As a next step, examine the sequence that follows.
Value (apparent KD of MS2 coat protein, MS2 coat protein) for record AAAAAGUGAGGAUAUACGAUGUGGAGUAGACACAACCAGACGUAGAAGGCACAUGAGGAUCACCCAUGUCCAAA [EX4 Malc#17] = 28.6 nM
